target: T1, human IL-17A (human, UniProt Q16552 24-155, biotinylated with Sulfo-NHS-LC-Biotin in the AlphaScreen assays only); experiment: SPR Biacore, hIL-17A on chip; periplasmic extract (*)
T1 construct: also called hIL-17A; recombinant human IL-17A
T1 sequence (Q16552 other isoform, or with tags, fused parts or gaps): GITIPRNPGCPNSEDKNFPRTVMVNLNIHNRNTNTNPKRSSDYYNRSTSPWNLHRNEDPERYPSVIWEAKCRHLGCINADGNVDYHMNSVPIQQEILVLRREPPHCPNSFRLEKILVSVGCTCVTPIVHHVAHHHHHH
I'd appreciate it if you could supply koff values for the items below.
Field format: number, assumed s⁻¹, no unit text.

*Q* Which measured koff value corresponds to 03E05 (VHH, Class 1 Nanobody (anti-IL-17A); not shown: c-myc, His6 tag) VHH: EVQLVESGGGLVQAGGSLRLSCAASGVTFDDYSIGWFRQAPGKEREGVSCISSSDGIPYYSDFVKGRFTTSIDNAKNTVYLQMNSLKPEDTAVYYCAAGFGRLCAEFDSWGQGTQVTVSS ?
*A* 0.0001

*Q* Please report the recorded koff for 04A02 (VHH, Class 2 Nanobody (anti-IL-17A and IL-17A/F); not shown: c-myc, His6 tag) VHH: EVQLVESGGGLVQPGGSLRLSCAASRNINIINYMAWYRQAPGNQRELVAAMTSDATTEYADSVKGRFTISRDIPENTVYLQMNSLKPEDTAVYYCNAKGIWDYLGRRDFGDYWGQGTQVTVSS .
*A* 0.0013

*Q* Entry 01D02 (VHH, Class 1 Nanobody (anti-IL-17A); not shown: c-myc, His6 tag) VHH: EVQLVESGGGLVQAGGSLRLSCAASGLSFSSYALGWFRQAPGKERDFVAAINWSGDNTHYADSVKGRFTISRDNAKNTVSLQMNSLKPEDTAVYYCAAQLGYESGYSLTYDYDYWGQGTQVTVSS has what koff?
*A* 0.00044

*Q* Tell me the measured koff of 02E03 (VHH, Class 1 Nanobody (anti-IL-17A); not shown: c-myc, His6 tag) VHH: EVQLVESGGGLVQPGGSLRLSCAASGFTFSSYAMSWARQAPGEGLEWVSDINSGGTRTTYADSVKGRFTISRDNAKNTLYLQMNSLKPEDTAVYVCAKLSVFRSQLGGKYYGGDYENRGQGTQVTVSS , please.
*A* 0.0009
